Assay: Phase-solubility of dexmedetomidine in aqueous 2-HP-β-CD solutions (phosphate buffers, 32 °C)
Type: physicochemical
Conditions: phosphate buffer with 2-hp-β-cd, pH 7, pH 7; 2-HP-β-CD 10 % (m/V) (70 mM); 32° C.; read-out: DEX solubility
READOUT KIND: solubility at 240 h (µg/mL)
Quick reminder: number only, in µg/mL, skip the unit.

So what's the measured solubility at 240 h for this one? Cc1cccc([C@H](C)c2cnc[nH]2)c1C [DEX, dexmedetomidine] 3040

###

Assay: Phase-solubility of dexmedetomidine in aqueous 2-HP-β-CD solutions (phosphate buffers, 32 °C)
Type: physicochemical
Settings: phosphate buffer with 2-hp-β-cd, pH 6, pH 6; 2-HP-β-CD 5 % (m/V) (35 mM); 32° C.; read-out: DEX solubility
READOUT KIND: solubility at 240 h (µg/mL)
Quick reminder: number only, in µg/mL, skip the unit.

So what's the measured solubility at 240 h for this one? Cc1cccc([C@H](C)c2cnc[nH]2)c1C [DEX, dexmedetomidine] 7060
